# assay-summary: Half life in male Sprague-Dawley rat at 50 mg/kg, iv measured after 18 hrs LC/MS-MS analysis
# Format: ADME, organism-based
# test-settings: in vivo
measured-metric: half-life

INSERT INTO results (compound, measured_metric, assay_result) VALUES
  ('CC(C)[Si](O[C@H]1CC[C@H]2[C@@H]3CC(CN4CCC[C@H]4CO)C(=O)O[C@@H]3CC[C@]12C)(C(C)C)C(C)C (stereo partly specified)', 'half-life', '16.3 min');

* * *

# assay-summary: Cmax in male Sprague-Dawley rat at 50 mg/kg, iv measured after 18 hrs LC/MS-MS analysis
# Assay type: ADME, organism-based
# test-settings: in vivo
measured-metric: Cmax (ng/mL)

INSERT INTO assay_data (molecule, u, assay_result) VALUES
  ('CC(C)[Si](O[C@H]1CC[C@H]2[C@@H]3CC(CN4CCC[C@H]4CO)C(=O)O[C@@H]3CC[C@]12C)(C(C)C)C(C)C (stereo partly specified)', 'ng/mL', 12100);

* * *

# assay-summary: AUC (0 to t) in male Sprague-Dawley rat at 50 mg/kg, iv measured after 18 hrs LC/MS-MS analysis
# Format: ADME, organism-based
# test-settings: in vivo
measured-metric: AUC(0-t) at 18 h (ng·h/mL)

INSERT INTO results (molecule, measured_metric, assay_result) VALUES
  ('CC(C)[Si](O[C@H]1CC[C@H]2[C@@H]3CC(CN4CCC[C@H]4CO)C(=O)O[C@@H]3CC[C@]12C)(C(C)C)C(C)C (stereo partly specified)', 'AUC(0-t) at 18 h', 7150);

* * *

# assay-summary: Half life in male Sprague-Dawley rat at 200 mg/kg, po measured after 18 hrs LC/MS-MS analysis
# Type: ADME, organism-based
# test-settings: in vivo
measured-metric: half-life (min)

INSERT INTO measurements (molecule, u, assay_result) VALUES
  ('CC(C)[Si](O[C@H]1CC[C@H]2[C@@H]3CC(CN4CCC[C@H]4CO)C(=O)O[C@@H]3CC[C@]12C)(C(C)C)C(C)C (stereo partly specified)', 'min', 59.8);

* * *

# Tested on: Z-138
# assay-summary: Antiproliferative activity against human Z138 cells assessed as inhibition of cell proliferation incubated for 72 hrs by CCK-8 assay
# Type: functional, cell-based
# test-settings: Z-138, 72 h
measured-metric: IC50 (nM)

INSERT INTO assay_data (structure, tested_target, assay_result) VALUES
  ('C=C1C[C@@H]2[C@@H](CC[C@]3(C)[C@@H](O[Si](C(C)C)(C(C)C)C(C)C)CC[C@@H]23)OC1=O', 'Z-138', 1880);
